measure_name: melting point (°C)

CCCc1cccc(OCCCF)c1S(=O)(=O)NC(=O)n1nc(N(C)C)n(C2CC2)c1=O | 130
CCc1ccccc1S(=O)(=O)N(OCCF)C(=O)n1nc(C)n(C2CC2)c1=O | 147
CCCOc1cccc(OCCF)c1S(=O)(=O)NC(=O)n1nc(OCC)n(C)c1=O | 132
CCOc1cccc(OCCF)c1S(=O)(=O)NC(=O)n1nc(OCC)n(C)c1=O | 157
CCc1cccc(OCCCF)c1S(=O)(=O)NC(=O)n1nc(CC)n(C2CC2)c1=O | 140
CCCOc1nn(C(=O)NS(=O)(=O)c2c(OCC)cccc2OCCF)c(=O)n1C | 123
COc1nn(C(=O)NS(=O)(=O)c2c(C)cccc2OCCCF)c(=O)n1C | 120
